Entry source: patent US7550629B2

system: beta amyloid 40; assay: Aβ40/42 ELISA Assay: Aβ40; assay type: cell-based; conditions: Cricetulus griseus; CHO cells carrying the APP-REP-NL plasmid, 22 hours, sandwich ELISA of medium
metric-name: log10 EC50 (log10 of the value in µM)
Units before log transform: µM; reported quantity: EC50; transform: log10.

# count of solved cases: 4
O=S(=O)(NC(CO)C(C(F)(F)F)C(F)(F)F)c1ccc(F)c(F)c1 (centres unmarked): 0.35
CC(C)c1ccc(S(=O)(=O)NC(CO)C(C(F)(F)F)C(F)(F)F)cc1 (centres unmarked): 1.25
O=S(=O)(N[C@H](CO)C(C(F)(F)F)C(F)(F)F)c1ccc(Cl)cc1: -0.66
O=S(=O)(NC(CO)C(C(F)(F)F)C(F)(F)F)c1ccccc1 (centres unmarked): 0.80

// input: 3 compounds below; output: log10 EC50 for each
1. O=S(=O)(NC(CO)C(C(F)(F)F)C(F)(F)F)c1cc(F)cc(F)c1 (centres unmarked)
2. O=S(=O)(NC(CO)C(C(F)(F)F)C(F)(F)F)c1ccc(Cl)c(F)c1 (centres unmarked)
3. Cc1cc(S(=O)(=O)NC(CO)C(C(F)(F)F)C(F)(F)F)ccc1F (centres unmarked)

1: 0.76; 2: 0.04; 3: 0.82

Below are 8 compounds. Give each one its log10 EC50.
1. O=S(=O)(NC(CO)C(C(F)(F)F)C(F)(F)F)c1cccc(OC(F)F)c1 (centres unmarked)
2. O=S(=O)(NC(CO)C(C(F)(F)F)C(F)(F)F)c1cccc(Cl)c1Cl (centres unmarked)
3. CC(=O)c1cccc(S(=O)(=O)NC(CO)C(C(F)(F)F)C(F)(F)F)c1 (centres unmarked)
4. COc1cc(S(=O)(=O)NC(CO)C(C(F)(F)F)C(F)(F)F)ccc1Cl (centres unmarked)
5. COc1cccc(S(=O)(=O)NC(CO)C(C(F)(F)F)C(F)(F)F)c1 (centres unmarked)
6. O=S(=O)(NC(CO)C(C(F)(F)F)C(F)(F)F)c1ccc(OC(F)F)cc1 (centres unmarked)
7. CSc1cc(S(=O)(=O)NC(CO)C(C(F)(F)F)C(F)(F)F)ccc1Cl (centres unmarked)
8. O=S(=O)(NC(CO)C(C(F)(F)F)C(F)(F)F)c1ccc(OC(F)(F)F)cc1 (centres unmarked)

[1.68, 1.05, 1.13, 1.00, 1.38, 0.65, 1.35, 0.93]

Provide each entry's log10 EC50 from the list below.
1. Cc1cccc(S(=O)(=O)NC(CO)C(C(F)(F)F)C(F)(F)F)c1 (centres unmarked)
2. O=S(=O)(NC(CO)C(C(F)(F)F)C(F)(F)F)c1ccccc1F (centres unmarked)
3. C[C@H]([C@@H](CO)NS(=O)(=O)c1ccc(Cl)cc1)C(F)(F)F
4. O=[N+]([O-])c1cc(S(=O)(=O)NC(CO)C(C(F)(F)F)C(F)(F)F)ccc1Cl (centres unmarked)

1. 1.18
2. 1.37
3. 0.47
4. 1.66

// each listed compound needs a value for log10 EC50
1. Cc1ccc(S(=O)(=O)NC(CO)C(C(F)(F)F)C(F)(F)F)cc1 (centres unmarked)
2. O=S(=O)(NC(CO)C(C(F)(F)F)C(F)(F)F)c1ccc(C(F)(F)F)cc1 (centres unmarked)
3. O=S(=O)(NC(CO)C(C(F)(F)F)C(F)(F)F)c1ccc(F)c(Cl)c1 (centres unmarked)
4. O=S(=O)(N[C@H](CO)C(CC(F)(F)F)CC(F)(F)F)c1ccc(Cl)cc1
5. O=S(=O)(NC(CO)C(C(F)(F)F)C(F)(F)F)c1cccc(F)c1 (centres unmarked)
6. C[C@@H]([C@@H](CO)NS(=O)(=O)c1ccc(Cl)cc1)C(F)(F)F
7. O=S(=O)(NC(CO)C(C(F)(F)F)C(F)(F)F)c1cc(Cl)cc(Cl)c1 (centres unmarked)
8. O=S(=O)(NC(CO)C(C(F)(F)F)C(F)(F)F)c1ccccc1Cl (centres unmarked)

1. 0.18
2. 0.36
3. 0.83
4. -0.48
5. 0.96
6. -0.37
7. 1.81
8. 1.40

# map each compound to its log10 EC50
1. O=S(=O)(NC(CO)C(C(F)(F)F)C(F)(F)F)c1ccc(F)cc1 (centres unmarked)
2. O=S(=O)(NC(CO)C(C(F)(F)F)C(F)(F)F)c1ccc(F)c(F)c1F (centres unmarked)
3. COc1ccc(S(=O)(=O)NC(CO)C(C(F)(F)F)C(F)(F)F)cc1 (centres unmarked)
4. O=S(=O)(NC(CO)C(C(F)(F)F)C(F)(F)F)c1cccc(Cl)c1 (centres unmarked)
5. O=S(=O)(NC(CO)C(C(F)(F)F)C(F)(F)F)c1ccc(Cl)cc1 (centres unmarked)
6. O=S(=O)(NC(CO)C(C(F)(F)F)C(F)(F)F)c1ccc(Cl)c(Cl)c1 (centres unmarked)
7. O=S(=O)(NC(CO)C(CC(F)(F)F)CC(F)(F)F)c1ccc(Cl)cc1 (centres unmarked)

0.05
1.51
0.83
1.38
0.00
0.67
-0.29

Give recorded log10 EC50 with beta amyloid 40 for the following compound: CCc1ccc(S(=O)(=O)NC(CO)C(C(F)(F)F)C(F)(F)F)cc1 (centres unmarked)
0.86
